- Test system: HCC1569;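 note: TDF is a line of transformed human dermal fibroblasts of mesenchymal origin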
- test.description: H1.0 immunofluorescence intensity relative to DMSO (% of DMSO); higher = stronger H1.0 induction, active = 140 or more
- stated.conditions: concentration: 10 µM; 24 h
observed.property: H1.0 immunofluorescence intensity
Please reply with the value in numeric form only.

CCNC(=O)CC[C@H](N)C(=O)O; 95.6
NC(=O)N1c2ccccc2C=Cc2ccccc21 [Carbamazepine]; 97

The reported H1.0 immunofluorescence intensity of the compound CCn1cc(C(=O)O)c(=O)c2ccc(Cc3ccccc3)nc21 was 95.4

Quick note, H1.0 immunofluorescence intensity for COc1c(C)c2c(c(O)c1CC=C(C)CCC(=O)O)C(=O)OC2 landed at 116

Entry FC(F)(F)c1cc(NC(=S)Nc2ccc(Br)cc2-c2nn[nH]n2)cc(C(F)(F)F)c1 — recorded H1.0 immunofluorescence intensity = 120

Lab book: H1.0 immunofluorescence intensity of CCCCCC#CCC(O)C=CC=CC=CC(O)CCCC(=O)O (centres undefined) [14,15-Dehydroleukotriene B4] noted as 101

Per the record, Cc1[nH]c(=O)c(C#N)cc1-c1ccncc1 has H1.0 immunofluorescence intensity of 103

For this compound ( O=C(CCCCCCc1ccccc1)c1ncc(-c2ccccn2)o1 [7-phenyl-1-[5-(2-pyridinyl)-1,3-oxazol-2-yl]-1-heptanone] ), measured H1.0 immunofluorescence intensity is 107

The compound COc1ccc(S(=O)(=O)Nc2nc(-c3cccc([N+](=O)[O-])c3)cs2)cc1OC showed H1.0 immunofluorescence intensity equal to 97.7

These data points were gathered from the supplement of paper PMC7156485.
